The values you see were collected from ChEMBL document CHEMBL1136530.

Hi there, I'd appreciate the recorded MIC for every entry that follows.
system: Escherichia coli; experiment: Minimum inhibitory concentration against Escherichia coli; format: functional
All answers are understood in µg/mL, so give the number only.

# input For the record CCCC[C@@]1(O)[C@H](C)O[C@@H](O[C@H]2[C@H](C)[C@@H](O[C@@H]3O[C@H](C)C[C@H](N(C)C)[C@H]3O)[C@](C)(O)C[C@@H](C)CN[C@H](C)[C@@H](O)[C@](C)(O)[C@@H](CC)OC(=O)[C@@H]2C)C[C@@]1(C)OC , what value of MIC is listed for Escherichia coli?
# output 12.5

# input Next up: CC#C[C@@]1(O)[C@H](C)O[C@@H](O[C@H]2[C@H](C)[C@@H](O[C@@H]3O[C@H](C)C[C@H](N(C)C)[C@H]3O)[C@](C)(O)C[C@@H](C)CN[C@H](C)[C@@H](O)[C@](C)(O)[C@@H](CC)OC(=O)[C@@H]2C)C[C@@]1(C)OC
# output 1.56

# input Next up: CC[C@H]1OC(=O)CC(O)[C@H](C)[C@@H](OC2O[C@H](C)[C@@H](O)[C@H](N(C)C)[C@H]2O)[C@@H](CCN2C[C@H](C)C[C@H](C)C2)CC(C)C(=O)/C=C/C(C)=C/[C@@H]1CO[C@@H]1O[C@H](C)[C@@H](O)[C@@H](OC)[C@H]1OC (stereo partly drawn)
# output 50

# input Next up: CC[C@H]1OC(=O)[C@H](C)[C@@H](O[C@H]2C[C@@](C)(OC)[C@@](O)(C#CCN(C)C)[C@H](C)O2)[C@H](C)[C@@H](O[C@@H]2O[C@H](C)C[C@H](N(C)C)[C@H]2O)[C@](C)(O)C[C@@H](C)CN(C)[C@H](C)[C@@H](O)[C@]1(C)O
# output 0.39

# input Next up: CC[C@H]1OC(=O)[C@H](C)[C@@H](O[C@H]2C[C@@](C)(OC)[C@@]3(CO3)[C@H](C)O2)[C@H](C)[C@@H](O[C@@H]2O[C@H](C)C[C@H](N(C)C)[C@H]2O)[C@](C)(O)C[C@@H](C)CN[C@H](C)[C@@H](O)[C@]1(C)O
# output 1.56

# input Next up: C=C[C@@]1(O)[C@H](C)O[C@@H](O[C@H]2[C@H](C)[C@@H](O[C@@H]3O[C@H](C)C[C@H](N(C)C)[C@H]3O)[C@](C)(O)C[C@@H](C)CN[C@H](C)[C@@H](O)[C@](C)(O)[C@@H](CC)OC(=O)[C@@H]2C)C[C@@]1(C)OC
# output 1.56

# input Next up: CC[C@H]1OC(=O)[C@H](C)[C@@H](O[C@H]2C[C@@](C)(OC)[C@@](O)(c3ccco3)[C@H](C)O2)[C@H](C)[C@@H](O[C@@H]2O[C@H](C)C[C@H](N(C)C)[C@H]2O)[C@](C)(O)C[C@@H](C)CN[C@H](C)[C@@H](O)[C@]1(C)O
# output 1.56

# input Next up: C#C[C@@]1(O)[C@H](C)O[C@@H](O[C@H]2[C@H](C)[C@@H](O[C@@H]3O[C@H](C)C[C@H](N(C)C)[C@H]3O)[C@](C)(O)C[C@@H](C)CN[C@H](C)[C@@H](O)[C@](C)(O)[C@@H](CC)OC(=O)[C@@H]2C)C[C@@]1(C)OC
# output 3.13
